The origin of these recorded values is ChEMBL document CHEMBL5053550.

Molecular target: Pantothenate kinase 3 (Homo sapiens, UniProt Q9H999)
Sequence (Q9H999 whole entry): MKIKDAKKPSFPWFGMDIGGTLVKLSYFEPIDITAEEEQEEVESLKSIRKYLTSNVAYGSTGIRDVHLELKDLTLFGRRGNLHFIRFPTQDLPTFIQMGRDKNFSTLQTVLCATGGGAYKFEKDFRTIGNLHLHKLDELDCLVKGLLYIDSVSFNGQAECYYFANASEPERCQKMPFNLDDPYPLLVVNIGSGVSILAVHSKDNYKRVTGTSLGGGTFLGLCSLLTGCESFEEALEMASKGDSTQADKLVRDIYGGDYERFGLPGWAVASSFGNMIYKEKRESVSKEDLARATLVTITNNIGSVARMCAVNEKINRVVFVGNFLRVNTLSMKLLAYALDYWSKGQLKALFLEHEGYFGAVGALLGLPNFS
assayReadout: IC50

{"compound": "CC(C)c1ccc(OC(=O)N2CCN(c3ccc(C#N)cn3)CC2)cc1", "observedMeasurement": "420 nM"}
{"compound": "CCCCc1ccc(NC(=O)N2CCN(c3ccc(C#N)cn3)CC2)c(C)c1", "observedMeasurement": "1200 nM"}
{"compound": "CC(C)c1ccc(C(O)C(=O)N2CCN(c3ccc(C#N)cn3)CC2)cc1 (configuration not stated)", "observedMeasurement": "990 nM"}
{"compound": "CC(C)c1ccc(NC(=O)N2CCN(c3ccc(Br)cn3)CC2)cc1", "observedMeasurement": "220 nM"}
{"compound": "CC(C)c1ccc(NC(=O)N2CCN(c3cnc(C#N)nc3)CC2)cc1", "observedMeasurement": "170 nM"}
{"compound": "CC(C)c1ccc(NC(=O)N2CCN(c3ccc(Cl)cn3)CC2)cc1", "observedMeasurement": "220 nM"}
{"compound": "CC(C)c1ccc(NC(=O)N2CCN(c3ccc(Cl)c(Cl)c3)CC2)cc1", "observedMeasurement": "1400 nM"}

====

Experiment: Half life in mouse liver microsomes
Type: ADME, Microsome
Details: liver microsomes

{"structureSmilesString": "CC(C)(C)c1ccc(NC(=O)N2CCN(c3ccc(C#N)cn3)CC2)cc1", "measurementUnit": "min", "half-life": 16}
{"structureSmilesString": "CC(C)c1ccc(CC(=O)N2CCN(c3ccc(C#N)nn3)CC2)cc1", "measurementUnit": "min", "half-life": 8}

====

Test: Protein binding in mouse plasma by LCMS analysis
Type: ADME, cell-free
Details: read-out: PPB (converted)

{"structureSmilesString": "CC(C)c1ccc(CC(=O)N2CCN(c3ccc(C#N)nn3)CC2)cc1", "fraction unbound": 0.08}

====

Assay: Protein binding in human plasma by LCMS analysis
Format: ADME, cell-free
Settings: read-out: PPB (converted)

{"structureSmilesString": "CC(C)c1ccc(CC(=O)N2CCN(c3ccc(C#N)nn3)CC2)cc1", "fraction unbound": 0.07}

====

Experiment: Permeability across apical to basolateral side in human Caco2 cells
Type: ADME, cell-based
Conditions: Caco-2, read-out: permeability

{"structureSmilesString": "CC(C)c1ccc(CC(=O)N2CCN(c3ccc(C#N)nn3)CC2)cc1", "measurementUnit": "×10⁻⁶ cm/s", "Papp A→B": 30.2}

====

Assay: Half life in human plasma
Assay type: ADME, cell-free

{"structureSmilesString": "CC(C)c1ccc(NC(=O)N2CCN(c3ccc(C#N)nn3)CC2)cc1", "half-life": "> 48 h"}
{"structureSmilesString": "CC(C)c1ccc(CC(=O)N2CCN(c3ccc(C#N)nn3)CC2)cc1", "half-life": "> 48 h"}
{"structureSmilesString": "CC(C)(C)c1ccc(NC(=O)N2CCN(c3ccc(C#N)cn3)CC2)cc1", "half-life": "> 48 h"}
